Target: HMGB1 Box A domain (Homo sapiens, UniProt P09429)
Construct: (iii) Box A: residues 10-80; hexaHis (TEV-cleavable) (N, cleaved yes); made in house
Sequence (P09429 10-80): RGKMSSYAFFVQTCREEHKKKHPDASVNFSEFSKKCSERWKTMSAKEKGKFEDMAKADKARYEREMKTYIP
Assay: 15N-1H HSQC titration for Kd measurement
Type: binding
Conditions: read-out: affinity (Kd) for Box A of HMGB1 as stated in definitions
Measured Parameter: Kd

[[record]]
substance_smiles = "O=C(O)c1ccccc1O"
result = "~10 mM"


* * *

Biological target: HMGB1^RE (Homo sapiens)
Construct: (i) full length: residues 2-215; 6x His (cleaved yes); made in house; host or cells: Escherichia coli BL21
Test: Chemotaxis assay (Boyden chambers): HMGB1^RE-elicited migration of mouse 3T3 fibroblasts
Type: cell-based
Details: mouse 3T3 fibroblasts, 1 nM HMGB1^RE; read-out: IC50, inhibition of HMGB1^RE-elicited migration of fibroblasts
Procedure: Cell migration was assayed using Boyden chambers (Venereau et al., 2012). The downside of PVP-free polycarbonate filters (8 μm pores; Millipore) was coated with 50 μg/ml fibronectin (Sigma). Serum-free DMEM (negative control), DMEM containing 0.1 nM fMLP (positive control; Sigma), or DMEM containing 1 nM HMGB1^RE or HMGB1^SS were placed in the lower chamber, together with different concentrations of SA (Sigma). […]
Measured Parameter: IC50

[[record]]
substance_smiles = "O=C(O)c1ccccc1O"
result = "3 to 4 µM"


Origin of the recorded values: patent US20180045715A1
